# self-cleavage per record follows
B1: OR4K15 (parent)
chain: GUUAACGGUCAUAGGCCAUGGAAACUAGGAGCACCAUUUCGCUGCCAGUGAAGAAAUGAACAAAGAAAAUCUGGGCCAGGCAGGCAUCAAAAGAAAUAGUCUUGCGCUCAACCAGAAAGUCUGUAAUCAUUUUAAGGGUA

# Variants of: B1
# method_summary: self-cleavage, relative activity (ratio to wild type); higher = more cleavage; in vitro, sequencing; the parent is a self-cleaving ribozyme
Note: the reply should be a number with no unit written.

| record_sequence | self-cleavage |
| --- | --- |
| GUUAACGGUCAUAGGCCAUGGAAACUAGGAGCACCAUUUCGCUGCCAGUGAAGAAAUAAACAAAGAAAAUCUGGGCCAGGCAGGCAUCAAAAGAGAUAGUCUUGCGCUCAACCAGAAAGUCUGUAAUCAUUUUAAGGGUA [G58A A95G] | 1.51 |
| GUUAACGGUCAUAGGCCAUGGAAACUAGGAGCACCAUUUCGCUGCCAGUGAAGAAAUGAACAAAGAAAAUCUGGGCCAGGCAGACAUCAAAAGAAGUAGUCUUGCGCUCAACCAGAAAGUCUGUAAUCAUUUUAAGGGUA [G84A A96G] | 2.43 |
| GUUAACGGUCAUAGGCCAUGGAAACUAGGAGCACCAUUUCGCUGCCAGUGAAGAAAUGAACAAGGAAAAUCUGGGCCAGGCAGGCAUCAAAAGAAAUAGUCAUGCGCUCAACCAGAAAGUCUGUAAUCAUUUUAAGGGUA [A64G U102A] | 0.68 |
| GUUAACGGUCAUAGGCCAUGGAAACUAGGUGCACCAUUUCGCCGCCAGUGAAGAAAUGAACAAAGAAAAUCUGGGCCAGGCAGGCAUCAAAAGAAAUAGUCUUGCGCUCAACCAGAAAGUCUGUAAUCAUUUUAAGGGUA [A30U U43C] | 1.88 |

I am curious: what self-cleavage value has been reported for GUUAACGGUCAUAGGCCAUGGAAACUAGGAGCACCAUUUCGCUGCCAGUGAAGAACUGAACAAAGAAAGUCUGGGCCAGGCAGGCAUCAAAAGAAAUAGUCUUGCGCUCAACCAGAAAGUCUGUAAUCAUUUUAAGGGUA [A56C A69G] ? 1.24

Values compiled from the RNAGym collection of RNA variant scans (doi:10.7554/elife.90254).
